Entry source: patent US7741337B2

Hi there, I'd appreciate the recorded Emax at 0.01 µM for every entry that follows.
- System: A549 (Lung cancer) cells
- measurement description: Effect on cell migration, A549
- Assay type: cell-based
- test context: Homo sapiens, 22 hours on the 25% of most motile cells, at 10^−8 M, p value in same cell, read-out: Maximum effects (cell migration)
Write down the numeric answer in % and omit the unit.

Can you look up the measured Emax at 0.01 µM of CN(C)CCN1C(=O)c2cccc3cc4c(N=Cc5cc(O)ccc5O)cccc4c(c23)C1=O (stereo in doubt) for me? -29

Sample CN(C)CCN1C(=O)c2cccc3cc4cccc(NC(=O)Oc5ccc(F)cc5)c4c(c23)C1=O — what was its Emax at 0.01 µM? -31

So what does the record say about Emax at 0.01 µM for C=CCOC(=O)Nc1cccc2cc3cccc4c3c(c12)C(=O)N(CCN(C)C)C4=O ? -29

Given CN(C)CCN1C(=O)c2cccc3cc4cccc(/N=C\c5cc(O)ccc5O)c4c(c23)C1=O , state its recorded Emax at 0.01 µM. -47
